Catalogue of sequences with associated self-splicing fitness (ln)
# protocol: self-splicing fitness, log relative to wild type (ln ratio); higher = more splicing; Tetrahymena group I intron in knt gene, E. coli kanamycin selection, DiMSum; sequences stand for … in CUCUCU…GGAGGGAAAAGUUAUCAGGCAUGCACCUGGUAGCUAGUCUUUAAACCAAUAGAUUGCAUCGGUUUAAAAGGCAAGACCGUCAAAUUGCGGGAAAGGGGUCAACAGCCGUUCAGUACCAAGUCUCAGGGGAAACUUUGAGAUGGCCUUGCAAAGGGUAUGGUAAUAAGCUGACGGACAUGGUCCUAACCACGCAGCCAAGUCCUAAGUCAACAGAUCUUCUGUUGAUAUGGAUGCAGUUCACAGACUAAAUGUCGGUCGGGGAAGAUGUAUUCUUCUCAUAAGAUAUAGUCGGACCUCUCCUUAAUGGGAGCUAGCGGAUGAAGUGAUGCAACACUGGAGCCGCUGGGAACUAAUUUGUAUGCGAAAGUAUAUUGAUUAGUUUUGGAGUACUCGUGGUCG;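 further: selection with 25 µg/mL kanamycin versus none on LB agar overnight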
# conditionDescription: 30 °C
observationType: self-splicing fitness (ln)

| recordSequence | observedValue |
| --- | --- |
| GCCAAGCAAUAUUACGUACG | -1.79 |
| GUGAAGCAAUAUUACGUACG | -0.64 |
| GGACAGCAAUAUUACGUGCU | -0.778 |
| GUCGAGCAAUAUUACGUACG | -2.29 |
| AUCAAGCAAUAUUACGGACU | -0.672 |
| UGCUAGCAAUAUUACGCACC | -1.91 |
| CGCGAGCAAUAUUACGCGUC | -3.67 |
| CCAUAGCAAUAUUACGUUCG | -0.579 |
| UUAAAGCAAUAUUACGGUAU | -2.14 |
| CCGCAGCAAUAUUACGACAG | -0.485 |
| GUCUAGCAAUAUUACGGGGA | -2.08 |
| UUGAAGCAAUAUUACGUUGA | -0.405 |
| CGAGAGCAAUAUUACGGCGU | -2.46 |
| AUACAGCAAUAUUACGCUCG | -0.288 |
| CCGAAGCAAUAUUACGACCU | -3.73 |
| AGACAGCAAUAUUACGUGUC | -3.93 |
